System: HEK-Blue TGFβ cell
experimental protocol: HEK-Blue TGFβ cellular reporter gene assay (SEAP readout)
Format: cell-based
measurement parameters: HEK-Blue TGFβ cells stimulated with TGF-β, 22-23 h incubation, SEAP read at 630 nm
Description: HEK-Blue TGFβ Cellular Reporter Gene Assay: HEK-Blue TGFβ cell was purchased from Invivogen. Cell suspension of 2.5×10^5 cells/ml was prepared using Test Medium (DMEM containing 0.5% v/v heat-inactivated FBS). TGF-β working solution (6 ng/ml) was obtained through diluting TGF-β stock solution (10 μg/ml) by Test Medium before use. […] The inhibition was calculated using the equation: […]
Note to self: use criterion met only for IC50 readings below 0.5 µM; a reading exactly at 0.5 µM still gets criterion not met.

Completed entries (count: 5):
Strictly below 0.5 µM in IC50? Cc1cc(Oc2ccnc(Nc3cccc(Cc4nnnn4CC(=O)O)c3)c2)c(-c2ccccn2)nc1C [Example 34B] criterion not met

Strictly below 0.5 µM in IC50? `Cc1ccc(Oc2ccnc(Nc3cccc(CCc4nn[nH]n4)n3)c2)c(C)n1` criterion met

Strictly below 0.5 µM in IC50? `Cc1cc(Oc2ccnc(Nc3ccc(-c4nnn[nH]4)cc3)c2)c(-c2ccccn2)nc1C` criterion not met

Strictly below 0.5 µM in IC50? `Cc1ccc(Oc2ccnc(Nc3ccc(C(F)(F)F)c(CCc4nn[nH]n4)c3)c2)c(-c2ccccn2)n1` criterion not met

Strictly below 0.5 µM in IC50? `Cc1cc(Nc2cc(Oc3cn(C4CC4)nc3C3CCOCC3)ccn2)cc(C(=O)O)c1` criterion not met

Continuing:
Strictly below 0.5 µM in IC50? `CCc1ccc(Oc2ccnc(Nc3cccc(CCC(=O)O)c3)c2)c(C)n1` criterion met

Strictly below 0.5 µM in IC50? `Cc1ccc(Oc2ccnc(Nc3cccc(CCC(=O)O)c3)c2)c(-c2ccccc2)n1` criterion met

Strictly below 0.5 µM in IC50? `Cc1cc(CC(C)(C)C(=O)O)cc(Nc2cc(Oc3cc(Cl)c(C)nc3C)ccn2)c1` criterion met

###

Listed compounds paired with reported AUCliver/AUCheart
experimental protocol: Tissue exposure (liver and heart) in Balb/c mouse after PO dosing, general PK protocol
Format: in vivo
measurement parameters: PO (intragastric) 10 mg/Kg, liver and heart tissue 0.5-24 h, LC-MS/MS
Reply with the value as a number alone.

What value of AUCliver/AUCheart has been reported for the following compound? Cc1cc(Oc2ccnc(Nc3cccc(CCC(=O)O)c3)c2)c(-c2ccccn2)nc1C [Example 1] 13.2

What value of AUCliver/AUCheart has been reported for the following compound? Cc1ccc(Oc2ccnc(Nc3cccc(CCc4nn[nH]n4)c3)c2)c(-c2ccccc2)n1 [Example 52] 70.6

What value of AUCliver/AUCheart has been reported for the following compound? Cc1ccc(Oc2ccnc(Nc3cccc(C(C)(C)C(=O)O)c3)c2)c(-c2ccccc2)n1 [Example 70] 67.7

What value of AUCliver/AUCheart has been reported for the following compound? Cc1cc(Oc2ccnc(Nc3cccc(Cc4nnn[nH]4)c3)c2)c(-c2ccccn2)nc1C [Example 16] 142

What value of AUCliver/AUCheart has been reported for the following compound? Cc1cc(Oc2ccnc(Nc3cccc(CCc4nn[nH]n4)c3)c2)c(-c2ccccn2)nc1C [Example 12] 60.9

What value of AUCliver/AUCheart has been reported for the following compound? CCc1ccc(Oc2ccnc(Nc3cccc(C(C)(C)C(=O)O)c3)c2)c(-c2ccccc2)n1 [Example 104] 27.8

What value of AUCliver/AUCheart has been reported for the following compound? CCc1ccc(Oc2ccnc(Nc3cccc(C(C)(C)C(=O)O)c3)c2)c(C)n1 [Example 81] 124

What value of AUCliver/AUCheart has been reported for the following compound? Cc1cccc(-c2nn3c(c2-c2ccnc4ccc(C(N)=O)cc24)CCC3)n1 [Galunisertib, galunisertib, reference compound] 2.9

What value of AUCliver/AUCheart has been reported for the following compound? Cc1ccc(Oc2ccnc(Nc3cccc(CCc4nn[nH]n4)c3)c2)c(C)n1 [Example 44] 29.9

What value of AUCliver/AUCheart has been reported for the following compound? CC(C)(C(=O)O)c1cccc(Nc2cc(Oc3cn(C4CC4)nc3C3CCOCC3)ccn2)c1 [Example 74] 266

What value of AUCliver/AUCheart has been reported for the following compound? CC(C)(O)c1cc(Nc2cc(Oc3cn(C4CC4)nc3C3CCOCC3)ccn2)ccn1 [LY3200882, reference compound] 1.3

What value of AUCliver/AUCheart has been reported for the following compound? CCc1ccc(Oc2ccnc(Nc3cccc(CCc4nn[nH]n4)c3)c2)c(-c2ccccn2)n1 [Example 175] 183

###

System: HEK-Blue TGFβ cell
experimental protocol: HEK-Blue TGFβ cellular reporter gene assay (SEAP readout)
Format: cell-based
measurement parameters: HEK-Blue TGFβ cells stimulated with TGF-β, 22-23 h incubation, SEAP read at 630 nm
Listed molecules paired with reported pIC50
Units for pIC50: none; it is -log10 of a concentration expressed in mol/L.

// below: answered molecules
What value of pIC50 has been reported for the following molecule? CCc1nc(C)c(Oc2ccnc(Nc3cc(C)cc(CCc4nn[nH]n4)c3)c2)cc1C [Example 190] 8.22

What value of pIC50 has been reported for the following molecule? Cc1ccc(Oc2ccnc(Nc3cccc(C(C)(C)C(=O)O)c3)c2)c(-c2cccc(Cl)c2)n1 [Example 78] 6.96

What value of pIC50 has been reported for the following molecule? CC(C)(c1cccc(Nc2cc(Oc3cn(C4CC4)nc3C3CCOCC3)ccn2)c1)c1nn[nH]n1 [Example 195] 5.65

What value of pIC50 has been reported for the following molecule? CCc1nc(C)c(Oc2ccnc(Nc3cc(C)cc(CCc4nn[nH]n4)c3)c2)cc1Cl [Example 186] 7.29

What value of pIC50 has been reported for the following molecule? CCc1ccc(Oc2ccnc(Nc3cccc(C(C)(C)C(=O)O)c3)c2)c(-c2ccccn2)n1 [Example 84] 7.26

What value of pIC50 has been reported for the following molecule? CCc1ccc(Oc2ccnc(Nc3cc(C)cc(CCc4nn[nH]n4)c3)c2)c(C)n1 [Example 187] 7.57

Continuing:
What value of pIC50 has been reported for the following molecule? Cc1ccc(Oc2ccnc(Nc3cccc(CC(C)(C)C(=O)O)c3)c2)c(-c2ccccc2)n1 [Example 140] 7.46

What value of pIC50 has been reported for the following molecule? Cc1ccc(Oc2ccnc(Nc3cc(CCC(=O)O)ccn3)c2)c(C)n1 [Example 42] 6.85

What value of pIC50 has been reported for the following molecule? CCc1nc(C)c(Oc2ccnc(Nc3cc(C)cc(C(C)(C)C(=O)O)c3)c2)cc1Cl [Example 153] 7.15

What value of pIC50 has been reported for the following molecule? Cc1ccc(-c2nc(C)ccc2Oc2ccnc(Nc3cccc(C(C)(C)C(=O)O)c3)c2)cc1 [Example 94] 7.19

What value of pIC50 has been reported for the following molecule? CC(C)(C(=O)O)c1cccc(Nc2cc(Oc3cn(C(F)F)nc3-c3ccccc3)ccn2)c1 [Example 121] 7.11

What value of pIC50 has been reported for the following molecule? CCc1nc(C)c(Oc2ccnc(Nc3cccc(CCC(=O)O)c3)c2)cc1C [Example 149] 7.68

What value of pIC50 has been reported for the following molecule? Cc1cc(Oc2ccnc(Nc3cccc(CC(C)(C)C(=O)O)c3)c2)c(-c2ccccn2)nc1C [Example 137] 7.15

What value of pIC50 has been reported for the following molecule? Cc1cc(CC(C)(C)C(=O)O)cc(Nc2cc(Oc3cn(C4CC4)nc3-c3ccccc3)ccn2)c1 [Example 170] 7.85

What value of pIC50 has been reported for the following molecule? Cc1cc(CC(=O)O)cc(Nc2cc(Oc3cn(C4CC4)nc3C3CCOCC3)ccn2)c1 [Example 164] 5.95

What value of pIC50 has been reported for the following molecule? Cc1cccc(-c2nc(C)ccc2Oc2ccnc(Nc3cccc(C(C)(C)C(=O)O)c3)c2)c1 [Example 93] 6.92

What value of pIC50 has been reported for the following molecule? CCc1nc(C)ccc1Oc1ccnc(Nc2cccc(CCc3nn[nH]n3)c2)c1 [Example 56] 6.80

What value of pIC50 has been reported for the following molecule? CCc1cc(Oc2ccnc(Nc3cccc(CCc4nn[nH]n4)c3)c2)c(-c2ccccn2)nc1C [Example 181] 6.68

What value of pIC50 has been reported for the following molecule? Cc1cc(Oc2ccnc(Nc3cccc(OCc4nnn[nH]4)c3)c2)c(-c2ccccn2)nc1C [Example 33] 5.14

What value of pIC50 has been reported for the following molecule? c1cc(CCc2nn[nH]n2)cc(Nc2cc(Oc3cn(C4CC4)nc3C3CCOCC3)ccn2)c1 [Example 67] 5.58

What value of pIC50 has been reported for the following molecule? Cc1cc(Oc2ccnc(Nc3cccc(C(C)(C)C(=O)O)c3)c2)c(-c2ccccc2)nc1C [Example 98] 7.29

What value of pIC50 has been reported for the following molecule? Cc1cc(Oc2ccnc(Nc3cccc(CCc4nnn[nH]4)c3F)c2)c(-c2ccccn2)nc1C [Example 25] 6.19
